// data source = patent US7595326B2

System: LAPC-4
assay overview: MTT growth inhibition, prostate cancer cell line LAPC-4
Format: cell-based, human
assay setup: Homo sapiens, LAPC4; MTT; average of three independent experiments
Experimental: This MTT assay was carried using human prostate cancer cell lines CWR22R, LAPC-4 and LnCap using Promega cell titer 96 nonradioactive cell proliferation kit. […] Absorbance was measured at 570 and 650 nm on plate reader. […] Compounds with significant inhibitory activity in pancreatic cancer cells were further evaluated against prostate cancer cell lines in the MTT assay, (Mosmann, T., J. Immunol. Methods 65:55-63 (1983)) and the results were compared to those for compound 1 (Table 3).
quantity kind: IC50 (µM)

[P] O=C(NC(=S)Nc1ccc(Sc2ncc(Br)cn2)cc1)c1ccccc1
[Q] O=C(NC(=O)c1ccccc1[N+](=O)[O-])Nc1ccc(Sc2ncccn2)cc1
Enquiry: Pick one: P or Q . Which has the bigger IC50 number? Answer format: the label of the selected item.
Return: P

###

Tested on: Panc1005
assay overview: MTT growth inhibition, pancreatic cancer cell line Panc1005
Assay type: cell-based
assay setup: Homo sapiens, 96-hours treatment, average of three independent experiments
pIC50: −log10 of the molar value.
quantity kind: pIC50

- molecule: "O=C(NC(=O)c1ccccc1[N+](=O)[O-])Nc1ccc([S+]([O-])c2ncc(Br)cn2)cc1 (stereo not shown) [Compound 8g]"
  pIC50: 5.26

Enquiry: Param readout= pIC50; system= Panc1005; entry= Nc1ccccc1C(=O)NC(=O)Nc1ccc(Sc2ncccn2)cc1 [Compound 7b] ; returns value.
Return: < 5.00

Enquiry: Param readout= pIC50; system= Panc1005; entry= O=C(NC(=S)Nc1ccc(Sc2ncc(Br)cn2)cc1)c1ccccc1 [Compound 6h] ; returns value.
Return: < 5.00

Enquiry: Param readout= pIC50; system= Panc1005; entry= N=C(NC(=O)c1ccccc1)Oc1ccc(Sc2ncc(Br)cn2)cc1 [Compound 6g] ; returns value.
Return: < 5.00
